Attribution: patent US20190315854A1

TARGET: T1, sIL-6R (soluble IL-6 receptor; SBH Sciences) (human, UniProt P08887 20-365)
T1 construct: also called human IL-6R
T1 sequence: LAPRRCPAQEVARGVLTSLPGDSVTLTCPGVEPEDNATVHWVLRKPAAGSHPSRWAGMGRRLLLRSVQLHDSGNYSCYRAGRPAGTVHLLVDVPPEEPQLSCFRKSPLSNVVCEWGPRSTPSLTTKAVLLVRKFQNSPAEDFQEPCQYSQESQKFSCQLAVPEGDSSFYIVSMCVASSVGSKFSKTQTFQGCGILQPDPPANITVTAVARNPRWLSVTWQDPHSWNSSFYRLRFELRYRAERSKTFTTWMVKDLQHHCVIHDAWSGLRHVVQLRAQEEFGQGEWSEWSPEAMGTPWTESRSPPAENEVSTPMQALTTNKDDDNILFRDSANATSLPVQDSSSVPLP
TEST DESCRIPTION: SPR (BIAcore 3000), antibody on chip, sIL-6R analyte, 25 C

{"BINDER": "18# (antibody, human IgG1, kappa, V domains shown, also called Sample # 18) VH: QVQLQESGPGLVRPSQTLSLTCTVSGYSITSDHAWSWVRQPPGRGLEWIGFISYSGITTYNPSLKSRVTMLRDTSKNQFSLRLSSVTAADTAVYYCARCLARITAMDYWGQGSLVTVSS VL: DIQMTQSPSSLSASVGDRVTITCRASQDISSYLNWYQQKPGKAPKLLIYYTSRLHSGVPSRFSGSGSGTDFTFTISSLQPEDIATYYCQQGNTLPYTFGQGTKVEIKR", "UNIT ABBREVIATION": "M⁻¹ s⁻¹", "kon": 335000}
{"BINDER": "14# (antibody, human IgG1, kappa, V domains shown, also called Sample # 14) VH: QVQLQESGPGLVRPSQTLSLTCTVSGYSITSDHAWSWVRQPPGRGLEWIGFISYSGITTYNPSLKSRVTMLRDTSKNQFSLRLSSVTAADTAVYYCARSLARITAMDYWGQGSLVTVSS VL: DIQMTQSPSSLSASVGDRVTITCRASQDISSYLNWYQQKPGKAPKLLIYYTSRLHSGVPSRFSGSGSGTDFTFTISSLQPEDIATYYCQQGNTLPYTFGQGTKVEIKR", "UNIT ABBREVIATION": "M⁻¹ s⁻¹", "kon": 314000}
{"BINDER": "13# (antibody, human IgG1, kappa, V domains shown, also called Sample # 13) VH: QVQLQESGPGLVRPSQTLSLTCTVSGYSITSDHAWSWVRQPPGRGLEWIGFISYSGITTYNPSLKSRVTMLRDTSKNQFSLRLSSVTAADTAVYYCARCLARTTAMDYWGQGSLVTVSS VL: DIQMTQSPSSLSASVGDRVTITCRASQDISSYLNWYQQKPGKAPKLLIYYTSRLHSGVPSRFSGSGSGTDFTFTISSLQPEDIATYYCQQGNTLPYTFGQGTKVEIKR", "UNIT ABBREVIATION": "M⁻¹ s⁻¹", "kon": 269000}
{"BINDER": "3# (antibody, human IgG1, kappa, V domains shown, also called Sample # 3) VH: QVQLQESGPGLVRPSQTLSLTCTVSGYSITSDHAWSWVRQPPGRGLEWIGYISYSGITTYNPSLKSRVTMLRDTSKNQFSLRLSSVTAADTAVYYCARSLARATAMDYWGQGSLVTVSS VL: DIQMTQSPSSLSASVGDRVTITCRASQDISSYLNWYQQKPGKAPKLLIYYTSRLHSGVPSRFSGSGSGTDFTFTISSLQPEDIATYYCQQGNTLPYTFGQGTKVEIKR", "UNIT ABBREVIATION": "M⁻¹ s⁻¹", "kon": 213000}
{"BINDER": "15# (antibody, human IgG1, kappa, V domains shown, also called Sample # 15) VH: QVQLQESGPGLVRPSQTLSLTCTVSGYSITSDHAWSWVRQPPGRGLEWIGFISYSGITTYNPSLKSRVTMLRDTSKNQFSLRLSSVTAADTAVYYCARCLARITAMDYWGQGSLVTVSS VL: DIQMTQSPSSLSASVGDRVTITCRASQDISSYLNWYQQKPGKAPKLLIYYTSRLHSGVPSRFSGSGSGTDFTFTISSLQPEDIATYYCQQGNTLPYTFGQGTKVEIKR", "UNIT ABBREVIATION": "M⁻¹ s⁻¹", "kon": 310000}
{"BINDER": "30# (antibody, human IgG1, kappa, V domains shown, also called Sample # 30) VH: QVQLQESGPGLVRPSQTLSLTCTVSGYSITSDHAWSWVRQPPGRGLEWIGFISYSGMTTYNPSLKSRVTMLRDTSKNQFSLRLSSVTAADTAVYYCARCLARTTAMDYWGQGSLVTVSS VL: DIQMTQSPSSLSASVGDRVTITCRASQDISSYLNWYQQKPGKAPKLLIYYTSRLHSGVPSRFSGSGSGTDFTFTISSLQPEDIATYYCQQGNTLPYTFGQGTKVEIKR", "UNIT ABBREVIATION": "M⁻¹ s⁻¹", "kon": 299000}
{"BINDER": "12# (antibody, human IgG1, kappa, V domains shown, also called Sample # 12) VH: QVQLQESGPGLVRPSQTLSLTCTVSGYSITSDHAWSWVRQPPGRGLEWIGFISYSGITTYNPSLKSRVTMLRDTSKNQFSLRLSSVTAADTAVYYCARCLARATAMDYWGQGSLVTVSS VL: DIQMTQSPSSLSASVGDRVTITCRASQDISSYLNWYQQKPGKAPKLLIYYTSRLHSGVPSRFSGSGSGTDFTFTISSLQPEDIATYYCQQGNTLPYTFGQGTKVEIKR", "UNIT ABBREVIATION": "M⁻¹ s⁻¹", "kon": 289000}
{"BINDER": "17# (antibody, human IgG1, kappa, V domains shown, also called Sample # 17) VH: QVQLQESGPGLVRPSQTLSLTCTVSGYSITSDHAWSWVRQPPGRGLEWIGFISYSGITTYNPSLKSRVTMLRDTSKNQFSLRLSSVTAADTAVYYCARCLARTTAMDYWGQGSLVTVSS VL: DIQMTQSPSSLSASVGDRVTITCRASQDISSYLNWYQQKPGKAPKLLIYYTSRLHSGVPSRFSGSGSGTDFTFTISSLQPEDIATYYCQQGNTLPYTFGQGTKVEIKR", "UNIT ABBREVIATION": "M⁻¹ s⁻¹", "kon": 287000}
{"BINDER": "7# (antibody, human IgG1, kappa, V domains shown, also called Sample # 7) VH: QVQLQESGPGLVRPSQTLSLTCTVSGYSITSDHAWSWVRQPPGRGLEWIGYISYSGITTYNPSLKSRVTMLRDTSKNQFSLRLSSVTAADTAVYYCARSLARTTAIDYWGQGSLVTVSS VL: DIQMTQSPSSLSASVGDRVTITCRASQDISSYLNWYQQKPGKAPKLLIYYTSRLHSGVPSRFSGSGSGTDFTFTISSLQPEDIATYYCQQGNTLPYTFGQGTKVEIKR", "UNIT ABBREVIATION": "M⁻¹ s⁻¹", "kon": 232000}
{"BINDER": "28# (antibody, human IgG1, kappa, V domains shown, also called Sample # 28) VH: QVQLQESGPGLVRPSQTLSLTCTVSGYSITSDHAWSWVRQPPGRGLEWIGFISYSGMTTYNPSLKSRVTMLRDTSKNQFSLRLSSVTAADTAVYYCARSLARTTAMDYWGQGSLVTVSS VL: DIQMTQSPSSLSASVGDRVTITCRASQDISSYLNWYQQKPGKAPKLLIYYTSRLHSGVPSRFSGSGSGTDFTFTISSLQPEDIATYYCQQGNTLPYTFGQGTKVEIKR", "UNIT ABBREVIATION": "M⁻¹ s⁻¹", "kon": 284000}
